study_system: factor Xa (Bos taurus, UniProt P00743)
Sequence (P00743 41-180): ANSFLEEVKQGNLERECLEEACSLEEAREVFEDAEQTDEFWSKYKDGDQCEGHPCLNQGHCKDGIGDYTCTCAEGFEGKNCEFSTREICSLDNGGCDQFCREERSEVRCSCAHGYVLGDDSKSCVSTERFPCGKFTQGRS
Sequence (P00743 234-492): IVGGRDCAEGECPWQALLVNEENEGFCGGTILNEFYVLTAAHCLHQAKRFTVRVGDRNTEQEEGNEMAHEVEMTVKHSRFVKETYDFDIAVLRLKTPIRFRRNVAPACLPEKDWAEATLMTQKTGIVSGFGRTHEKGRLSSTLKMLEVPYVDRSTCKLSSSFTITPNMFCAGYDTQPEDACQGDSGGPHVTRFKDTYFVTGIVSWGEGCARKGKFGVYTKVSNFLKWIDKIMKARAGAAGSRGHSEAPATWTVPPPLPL
measurement_label: IC50 (nM)

compound | measurement_label | scale_unit | observed_measurement
COc1ccc(NC(=O)c2ccc(C(=N)N(C)C)cc2)c(C(=O)Nc2ccc(Cl)cn2)c1 [Betrixaban] | IC50 | nM | 2880
